assay comment: P. aeruginosa biofilm formation inhibitors, primary screen, PAO1 strain, BacTiter-Glo luminescence, LB-PBS (AID 1144)
test settings: 12 h, higher = more signal
Please mark y if the recorded z-score is equal to or greater than -0.2, and n if it falls below.

Quick check, z-score >= -0.2? `CCN1C(=O)[C@H]2[C@H]3[C@H](O)[C@H](O)CC(=NOC[C@@H](O)COCc4ccco4)[C@H]3CC[C@H]2C1=O`
n

Quick check, z-score >= -0.2? `C=CC[C@@H]1C=C[C@H](ON=C[C@@H](NS(=O)(=O)c2ccc(C)cc2)[C@H](C)C=CCC(=O)OC)[C@@H](CO)O1`
y

Quick check, z-score >= -0.2? `COc1ccc(-c2cnnc(CCCn3ccnc3-c3ccccc3)n2)cc1`
n

Quick check, z-score >= -0.2? `C[C@@H](c1ccccc1)N1C(=O)[C@H]2[C@H]3[C@H](O)[C@H](O)CC(=NNC(=O)OCc4ccccc4)[C@@H]3CC[C@H]2C1=O`
n

Quick check, z-score >= -0.2? `COc1ccc(O[C@H]2C=C[C@@H](c3ccccc3)O[C@@H]2COC(=O)NCc2cccc3ccccc23)cc1`
y

Quick check, z-score >= -0.2? CCOC(=O)[C@H](Cc1ccccc1)NC(=O)CCC1CC(OC(=O)NCc2ccc3c(c2)OCO3)CC2(CCCC(COC(=O)NCCOc3ccccc3)O2)O1 (some centres not stated)
n

---

assay comment: E. coli DRC41 culture turbidity changes, primary screen, E. coli filamentation inducer project, strain DRC41, OD650, 48 h (AID 1152);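 note: E. coli MC1000 strain DRC41 lacking acrAB efflux pump and sulA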
test settings: E. coli DRC41 (acrAB sulA), higher = more signal, called active from +8 up or from −8 down
assay readout: z-score
Quick one: just the number, no unit, thanks!

Find the measured z-score of `CO[C@H]1COC(=O)CC=C[C@@H](C)COC(=O)[C@H]2CCCN2C(=O)CC=C[C@H]1C` and report it.
0.694

Find the measured z-score of `C#CCCCON=C1[C@H]2CCn3c(=O)n(Cc4cc5c(cc4Cl)OCO5)c(=O)n3[C@H]2[C@H](O)[C@@H]2O[C@H]12` and report it.
-0.248

Find the measured z-score of `CON=C[C@@H](OC)[C@H](C)C=CCC(=O)OC` and report it.
-2.24

Find the measured z-score of `CC(C)[C@@H](OCc1ccccc1)[C@H](C)C=NO[C@@H](C)c1cn([C@H](CO)Cc2ccccc2)nn1` and report it.
0.502

Find the measured z-score of `CO[C@@H]1COC(=O)[C@H](COCc2ccccc2)NC(=O)CC=C[C@@H](C)[C@H](OC)COC(=O)[C@@H](C)NC(=O)CC=C[C@H]1C` and report it.
0.52

Find the measured z-score of `C#CCCCON=C1C[C@@H](O)[C@@H](O)[C@@H]2[C@@H]3C(=O)N(C[C@@H]4CCCO4)C(=O)[C@@H]3CC[C@H]12` and report it.
-0.25

Find the measured z-score of `CC(=O)OC[C@H]1O[C@H](CCON=C(C)CCN2CCCc3nc(C)c(C)cc32)C=C[C@@H]1OC(C)=O` and report it.
0.198

Find the measured z-score of `CCOC(=O)CCN1C(=O)[C@H]2[C@H]3[C@H](O)[C@H](O)CC(=NOCC=C(C)CCC=C(C)C)[C@@H]3CC[C@H]2C1=O` and report it.
-0.879

---

Would you kindly list z-score for each of these molecules?
assay comment: P. aeruginosa biofilm formation inhibitors, primary screen, PAO1 strain, BacTiter-Glo luminescence, LB-PBS (AID 1144)
test settings: 12 h, higher = more signal
Quick one: just the number, no unit, thanks!

Find the measured z-score of COC(=O)CC=C[C@@H](C)[C@@H](C=NOC(C)CN1CCCCc2nc(C)c(C)cc21)NS(=O)(=O)c1ccc(C)cc1 (stereo partly drawn) and report it.
0.89

Find the measured z-score of `CO[C@@H]1C=CCC(=O)N[C@@H](C)C(=O)OC[C@@H](OC)[C@H](C)C=CCC(=O)OC[C@H]1C` and report it.
0.457

Find the measured z-score of `O=C1[C@H]2CCn3c(=O)n(-c4ccccc4)c(=O)n3[C@H]2[C@H](O)[C@@H]2O[C@H]12` and report it.
0.102

Find the measured z-score of `CC(C)(C)N1C(=O)[C@H]2[C@H]3[C@H](O)[C@H](O)CC(=NNC(=O)OCc4ccccc4)[C@H]3CC[C@H]2C1=O` and report it.
-0.497

Find the measured z-score of `CCN1C(C)=C(C(=O)OC)[C@@H](c2ccccc2)N2C(=O)[C@](O)(C(=O)OC)CC(C(C)=O)=C12` and report it.
-0.63

Find the measured z-score of `CON=C(C)CCN1CCCCc2nc(C)c(C)cc21` and report it.
-0.0896

Find the measured z-score of CCOC(=O)[C@H](CC(C)C)NC(=O)CCC1CC(OC(=O)NCc2ccc3c(c2)OCO3)CC2(CCCC(COC(=O)NCCOC)O2)O1 (stereo partly drawn) and report it.
0.211

Find the measured z-score of `CO[C@H]1COC(=O)CC=C[C@@H](C)COC(=O)[C@H]2CCCN2C(=O)CC=C[C@H]1C` and report it.
0.106

---

Tested on: glycogen synthase kinase-3 (GSK3A per assay name; protocol says GSK3B)
assay comment: GSK3 binders on small-molecule microarrays, primary screen, biochemical, small-molecule microarray, 635 nm fluorescence, GSK3A (AID 1103); note: the record names both GSK3A and GSK3B
test settings: small-molecule microarray binding, fluorescence 635 nm; higher = more signal
Would you kindly list composite z-score for each of these compounds?
Quick one: just the number, no unit, thanks!

State recorded composite z-score with glycogen synthase kinase-3 (GSK3A per assay name; protocol says GSK3B), entry C[C@]12CCC3c4ccc(OCC5CO5)cc4CCC3C1CC[C@@H]2O (stereo partly drawn) , no comment.
-0.309

State recorded composite z-score with glycogen synthase kinase-3 (GSK3A per assay name; protocol says GSK3B), entry `COC(=O)[C@H](CCSC)NC(=O)CC=C[C@@H](C)CO` , no comment.
1.28

State recorded composite z-score with glycogen synthase kinase-3 (GSK3A per assay name; protocol says GSK3B), entry `C#CCCCON=C1C[C@@H](O)[C@@H](O)[C@@H]2[C@@H]3C(=O)N(CC)C(=O)[C@@H]3CC[C@H]12` , no comment.
-0.396

State recorded composite z-score with glycogen synthase kinase-3 (GSK3A per assay name; protocol says GSK3B), entry `COC(=O)[C@@H]1CC[C@H](C)[C@@H](c2ccc(Br)cc2)N1` , no comment.
-0.879

State recorded composite z-score with glycogen synthase kinase-3 (GSK3A per assay name; protocol says GSK3B), entry `O=C1[C@H]2[C@H]3[C@H](O)[C@H](O)CC(=NOC[C@@H](O)COCc4ccco4)[C@@H]3CC[C@H]2C(=O)N1c1cccc(Oc2ccccc2)c1` , no comment.
-0.91

State recorded composite z-score with glycogen synthase kinase-3 (GSK3A per assay name; protocol says GSK3B), entry `CC(CCN1CCCCc2nc(C)c(C)cc21)=NO[C@H](C)c1cn([C@@H]2COC[C@H]2O)nn1` , no comment.
1.16

State recorded composite z-score with glycogen synthase kinase-3 (GSK3A per assay name; protocol says GSK3B), entry `CC[C@@H](c1ccccc1)n1c(=O)n2n(c1=O)[C@H]1[C@H](O)[C@@H]3O[C@@H]3C(=NOCc3ccccc3)[C@H]1CC2` , no comment.
-0.0586

State recorded composite z-score with glycogen synthase kinase-3 (GSK3A per assay name; protocol says GSK3B), entry `O=C1C[C@@H](O)[C@@H](O)[C@@H]2[C@@H]3C(=O)N(Cc4ccccc4)C(=O)[C@@H]3CC[C@H]12` , no comment.
0.331

---

Test system: Plasmodium falciparum Sir2 (PF13_0152, Sir2A)
assay comment: pfSir2 binders on small-molecule microarrays, primary screen, biochemical, small-molecule microarray, 635 nm fluorescence (AID 1098);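 note: score merges spot fluorescence intensity with its signal-to-noise ratio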
test settings: small-molecule microarray binding, fluorescence 635 nm; higher = more signal
assay readout: composite z-score
Quick one: just the number, no unit, thanks!

Find the measured composite z-score of `CC(=O)OC[C@H]1O[C@H](CC=NO[C@H](C)c2cn([C@@H]3COC[C@H]3O)nn2)C=C[C@@H]1OC(C)=O` and report it.
0.197

Find the measured composite z-score of Cc1cc2c(nc1C)CCCCN2CC(O)CN1CCCc2nc(-c3ccc(Br)cc3)ccc21 (stereo not given) and report it.
0.704

Find the measured composite z-score of CCOC(=O)[C@H](CC(C)C)NC(=O)CCC1CC(OC(=O)NCc2ccc3c(c2)OCO3)CC2(CCCC(COC(=O)NCCc3ccc(Cl)cc3)O2)O1 (stereo not given in full) and report it.
0.193

Find the measured composite z-score of `CC(C)(C)N1C(=O)[C@H]2[C@@H]3C(=CC[C@H]2C1=O)C(=O)[C@H]1O[C@H]1[C@H]3O` and report it.
1.09

Find the measured composite z-score of `O=C1[C@H]2[C@H]3[C@H](O)[C@H](O)CC(=NOCc4ccccc4)[C@@H]3CC[C@H]2C(=O)N1c1cccc(Oc2ccccc2)c1` and report it.
1.03

Find the measured composite z-score of `CC(CCN1CCCc2nc(C)c(C)cc21)=NO[C@H](C)c1cn([C@@H]2COC[C@H]2O)nn1` and report it.
0.389

Find the measured composite z-score of `CO[C@@H]1C=CCC(=O)N[C@@H](C)C(=O)OC[C@@H](OC)[C@H](C)C=CCC(=O)OC[C@H]1C` and report it.
1.27

Find the measured composite z-score of `C[C@@H]1CC[C@H]2C(=O)N3[C@@H](CC[C@@H](C)[C@@H]3c3ccc(Br)cc3)C(=O)N2[C@H]1c1ccc(Br)cc1` and report it.
0.223

Find the measured composite z-score of `O=C1C=C[C@@H](O)[C@@H]2[C@@H]3C(=O)N(Cc4ccccc4)C(=O)[C@@H]3CC[C@@H]12` and report it.
0.295

Find the measured composite z-score of C=CCOCC1CN2[C@@H](CC[C@@H](C)[C@@H]2c2ccc(Br)cc2)C(=O)O1 (stereo not given in full) and report it.
-0.316

Find the measured composite z-score of CCOC(=O)[C@H](CC(C)C)NC(=O)CCC1CC(OC(=O)NCc2ccc3c(c2)OCO3)CC2(CCCC(COC(=O)NCc3ccccc3)O2)O1 (stereo not given in full) and report it.
0.58

Find the measured composite z-score of `CC(=O)OC[C@H]1O[C@H](C#CCC2CCCCC2)C=C[C@@H]1OC(C)=O` and report it.
1.26

Find the measured composite z-score of `Cc1ccc(S(=O)(=O)N[C@@H]2COC(=O)CC=C[C@@H](C)[C@H](NS(=O)(=O)c3ccc(C)cc3)COC(=O)[C@H](C)NC(=O)CC=C[C@H]2C)cc1` and report it.
-0.267

Find the measured composite z-score of `CC(C)CN1CCc2nc(-c3ccccc3)c3c(c2C1)CO[C@@H](C)C3` and report it.
0.639

Find the measured composite z-score of `Cc1cc(C)c(-c2cc([C@H](C)ON=C[C@@H](C)[C@H](OCc3ccccc3)C(C)C)on2)c(C)c1` and report it.
-0.761

Find the measured composite z-score of `CCCNC(=O)OC[C@H]1O[C@H](CCON=C2c3cc(OC)ccc3O[C@H](c3cccc(OC)c3)[C@H]2O)C=C[C@@H]1Oc1ccc(OC)cc1` and report it.
0.204

Find the measured composite z-score of `CCN1C(=O)[C@H]2[C@H]3[C@H](O)[C@H](O)CC(=NOCC=C(C)CCC=C(C)C)[C@@H]3CC[C@H]2C1=O` and report it.
0.882

Find the measured composite z-score of `CC(CCN1CCCCc2nc(C)c(C)cc21)=NO[C@@H](C)c1cc(-c2c(C)cc(C)cc2C)no1` and report it.
1.41

Find the measured composite z-score of `CC(CCN1CCCCc2nc(C)c(C)cc21)=NOC[C@@H](O)[C@H]1O[C@@H]2OC(C)(C)O[C@@H]2[C@H]1O` and report it.
0.577

Find the measured composite z-score of `CC(C)(C)N1C(=O)[C@H]2[C@H]3[C@H](O)[C@H](O)CC(=NOC[C@@H](O)COCc4ccco4)[C@H]3CC[C@H]2C1=O` and report it.
0.732

Find the measured composite z-score of `COC(OC)[C@@H](C)[C@H](OC)[C@@H](C)[C@H](OC)c1ccccc1` and report it.
-0.15

Find the measured composite z-score of `CC(=O)OC[C@H]1O[C@@H](ON=C2[C@H]3CCn4c(=O)n(-c5ccccc5)c(=O)n4[C@H]3[C@H](O)[C@@H]3O[C@H]23)[C@H](OC(C)=O)[C@@H](OC(C)=O)[C@@H]1OC(C)=O` and report it.
0.242

Find the measured composite z-score of `CCc1cc2c(nc1CC)CCN(CCC(C)=NOCC[C@@H]1C=C[C@H](OC(C)=O)[C@@H](COC(C)=O)O1)C2` and report it.
1.05

Find the measured composite z-score of `CC(=O)OC[C@H]1O[C@H](CC=NOC[C@@H](O)COCc2ccco2)C=C[C@@H]1OC(C)=O` and report it.
0.717

Find the measured composite z-score of `CCCNC(=O)OC[C@H]1O[C@H](CCON=C[C@@H](NS(=O)(=O)c2ccc(C)cc2)[C@H](C)C=CCC(=O)OC)C=C[C@@H]1Oc1ccc(OC)cc1` and report it.
-0.289

Find the measured composite z-score of `CN1CCc2nc(-c3ccccc3)c(-c3ccccc3)cc2C1` and report it.
-0.0565

Find the measured composite z-score of COC(=O)C(C(=O)OC)C1CCCC(=O)C1 (stereo not given) and report it.
0.377

Find the measured composite z-score of `CCOC(=O)CCN1C(=O)[C@H]2[C@H]3[C@H](O)[C@H](O)CC(=NO[C@@H]4O[C@H](CO)[C@@H](O)[C@H](O)[C@H]4O)[C@@H]3CC[C@H]2C1=O` and report it.
0.839

Find the measured composite z-score of `COC(=O)[C@@H]1CC[C@H](C)[C@@H](c2ccc(Br)cc2)N1C[C@H](O)CN=[N+]=[N-]` and report it.
0.0722

Find the measured composite z-score of `COc1ccc(COC(=O)NN=C2C[C@@H](O)[C@@H](O)[C@@H]3[C@@H]4C(=O)N(C[C@@H]5CCCO5)C(=O)[C@@H]4CC[C@H]23)cc1` and report it.
-0.321
